- SYSTEM_NAME: T1, human 4-1BB, full length, on transfected cells (human, UniProt Q07011 24-255)
- T1 construct: whole, on cells; also called CHOK1-h4-1BB
- EXPERIMENTAL_PROTOCOL: FACS, CHOK1-h4-1BB cells; Ab 0.08 ug/ml
MEASUREMENT_NAME: average fluorescence intensity (MFI)
Lab book: enter the figure in MFI, no units written.

Form field average fluorescence intensity, entry 57B3D10 (antibody, V domains shown, also called 4-1BB fully human antibody 57B3D10) VH: QVQLQESGPGLVKPSETLSLTCTVSGGSISSYYWSWIRQPPGKGLEWIGYIYYSGSTNYNPSLKSRVTISVDTSKSQFSLKLTSVTAADTAVYYCAKDSDYYGSGSYSYWYFDLWGRGTLVTVSS VL: EIVMTQSPATLSVSPGERATLSCRASQSVSSNLAWYQQKPGQAPRLLIYGASTRAPGIPARFSGSGSGTEFTLTISSLQSEDFAVYYCQQYNNWPLTFGGGTKVEIK : 389

get_value(item= 119B6G5 (antibody, V domains shown) VH: EVQLLESGGGLVQPGGSLRLSCAASGFTFSNYAMSWVRQGPGKGLEWVSTIIGSGDSTYYTDSVKGRFTISRDNSKNTLFLQMNSLRAEDTAVYYCARDKSGWYYFDYWGQGTLVTVSS VL: DIQMTQSPSTLSASVGDRVTITCRASQSISNWLAWYQQKPGKAPKLLIYKASSLESGVPSRFSGSGSGTEFTLTISSLQPDDFATYYCQQYNDYFPITFGQGTRLEIK , readout=average fluorescence intensity) returns 199

Now take the following binder into account.
Entry under test: 100F3C4 (antibody, V domains shown) VH: QVQLQESGPGLVKPSGTLSLTCAVSGGSISSSNWWSWVRQPPGKGLEWIGEIYHSGSTNYNPSLKSRVTMSVDKSKNQFSLELRSVTAADTAVYYCARDAVDAYYYYYGMDVWGQGTTVTVSS VL: DIQLTQSPSFLSASVGDRVTITCRASQGISSYLAWYQQKPGKAPKLLIYAASTLQSGVPSRFSGSGSGTEFTLTISSLQPEDFATYYCQHLNSYPFTFGPGTKVDLK . Its average fluorescence intensity was 43.1
